Hello, the source for this data is PubChem BioAssay AID1159580, in case you need it.

- test.details: chemical genetic growth profiling, strain panel (AID 1159580);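 also: tested at 20 µM; growth read once vehicle control cultures reached saturation at 30 °C; 1 = growth at the plate median or of vehicle wells; lower values mean less growth of the strain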
- applied.conditions: S. cerevisiae deletion strains, growth OD, locus YNL153C, strain GIM3, stronger effect = lower value
The whole screen tested about 5,500 compounds, of which about 2,000 (36%) were called active. Roughly 18% stayed inconclusive and do not appear here. The list shows a part of the results.
measured.attribute: normalized growth
Please reply with the number alone, leaving off any unit.

Fill in the blank: the reported normalized growth of CC1CN=C(NC2CCCCC2)S1 (centres undefined) is ____.
1.01

What do we get for CNC(=O)Oc1ccccc1OC(C)C ?
1.02

What do we get for Cc1cc(NC(=O)Nc2cccc(C(F)(F)F)c2)n(C)n1 ?
0.998

What do we get for O=C1CSC(c2cccnc2)N1c1ccc(Cl)cc1 (centres undefined) ?
1.01

What do we get for CC(=O)OCCCCN1C(=O)c2ccccc2C1=O ?
1.02

What do we get for COC(=O)c1c(-c2cc(OC)c(OC)c(OC)c2)c2ccnc(OCc3ncccn3)c2c(=O)n1Cc1ccnc(C)c1 ?
1.01

What do we get for Cc1c(C)c(C)c(S(=O)(=O)Nc2ccccc2N)c(C)c1C ?
1.04

What do we get for Cc1cc(Oc2c([N+](=O)[O-])cc(C(F)(F)F)cc2[N+](=O)[O-])c2c(Cl)ccc(C)c2n1 ?
0.976

What do we get for COc1ccccc1C1CCN(c2ncnc3scc(-c4ccccc4)c23)CC1 ?
1.01

What do we get for N[C@@H](Cn1ccc(=O)[nH]c1=O)C(=O)O ?
1.03

What do we get for CCCN(CCC)c1c([N+](=O)[O-])cc(C(F)(F)F)cc1[N+](=O)[O-] ?
0.995

What do we get for Cc1c(NC(C)C)c(=O)n(-c2ccccc2)n1C ?
0.986

What do we get for CCOC(=O)c1c[nH]c2c(F)cccc2c1=O ?
0.973

What do we get for COc1ccc(CCNC(=O)c2ccccc2Cl)cc1OC ?
0.988

What do we get for Cc1ccc(NC(=S)C(C#N)C(=O)N2CCCC2)c(C)c1 (centres undefined) ?
0.98

What do we get for CN1CCC[C@H]1c1cccnc1 ?
1.02

What do we get for O=C1c2ccccc2C(=O)N1CNc1cccc(Cl)c1 ?
0.94

What do we get for O=C1C(=O)c2ccccc2C(O)=C1C1CCC(c2ccc(Cl)cc2)CC1 (centres undefined) ?
0.989

What do we get for Cc1ccc(O)c(C(CCN(C(C)C)C(C)C)c2ccccc2)c1 (centres undefined) ?
1.01

What do we get for C=C[C@H]1CN2CC[C@H]1C[C@H]2[C@H](O)c1ccnc2ccccc12 ?
1.01

What do we get for O=C1CSC(c2cccnc2)N1c1ccc(C2CCCCC2)cc1 (centres undefined) ?
1.01

What do we get for COc1c([N+](=O)[O-])cc(C(F)(F)F)cc1[N+](=O)[O-] ?
0.985

What do we get for CCOC(=O)c1cnc(SCC(=O)c2ccc(Cl)cc2Cl)[nH]1 ?
1

What do we get for O=c1c(O)cccc2cc(O)c(O)c(O)c12 ?
0.511

---

- test.details: chemical genetic growth profiling, strain panel (AID 1159580);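 also: tested at 20 µM; growth read once vehicle control cultures reached saturation at 30 °C; 1 = growth at the plate median or of vehicle wells; lower values mean less growth of the strain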
- applied.conditions: S. cerevisiae deletion strains, growth OD, locus YOR316C, strain cot1
Out of some 5,500 compounds screened, about 2,000 (36%) were called active. Not shown: some 18% with an inconclusive outcome. Rule as the data show it: active = normalized growth mostly below about 0.91 (no sharp cut-off); inconclusive = no clear call, values can overlap the other calls; inactive = mostly above about 0.92. Some of the results follow.
Outcomes you can answer with include only these: active, inactive

Dear all, I need the recorded test outcome for NS(=O)(=O)c1cc2c(cc1Cl)NCNS2(=O)=O , thank you.
inactive

What do we get for O=c1c(O)c(-c2ccccc2)oc2ccccc12 ?
inactive

What do we get for CC(C)[C@@H]1CC[C@@H](C)CC1=O ?
inactive

What do we get for NC(=NCCCCCCN=C(N)N=C(N)Nc1ccc(Cl)cc1)N=C(N)Nc1ccc(Cl)cc1 ?
active

What do we get for COc1cc(O)c2c(c1)C(=O)c1cc(C)cc(O)c1C2=O ?
inactive

What do we get for O=C(O)c1cc(O)c2c(c1)C(=O)c1cc(O)cc(O)c1C2=O ?
inactive

What do we get for Cc1cc(O)c2c(c1)C(=O)c1cccc(O)c1C2=O ?
inactive

What do we get for COc1ccc([C@@H](C)C(=O)c2ccc(O)cc2O)cc1 ?
inactive

What do we get for COC(=O)C(O)[C@H]1C(C)(C)[C@@H](OC(C)=O)[C@@H]2CC3=C4CC(=O)O[C@@H](c5ccoc5)[C@]4(C)CCC3[C@@]1(C)C2=O (some centres not stated) ?
inactive

What do we get for CC1(C)CC23C(=O)CCC(O)C2(C)CCC13 (configuration not stated) ?
inactive

What do we get for C[C@H]1C(=O)CCC2[C@]3(C)CC[C@@]4(C)C5CC(C)(C)CC[C@]5(C)CC[C@]4(C)C3CC[C@@]21C (some centres not stated) ?
inactive

What do we get for O=C(CCc1ccc(O)cc1)c1c(O)cc(O)cc1O ?
inactive

What do we get for C[N+]12CCC(CC1)C(OC(=O)C(O)(c1ccccc1)c1ccccc1)C2 (configuration not stated) ?
inactive

What do we get for C[N+]1(C)CCCC(OC(=O)C(O)(c2ccccc2)c2ccccc2)C1 (configuration not stated) ?
inactive

What do we get for CC(=O)OC1CCC23CC1(C)CCC2C(C)(C)CC3OC(C)=O (configuration not stated) ?
inactive

What do we get for Cc1cc(O)c2c(c1)C(=O)c1cc(O)cc(O)c1C2=O ?
active

What do we get for O=c1c(O)c(-c2ccccc2)oc2cc(O)ccc12 ?
active

What do we get for COC(=O)CC1C(C)(C)C(=O)C2CC3(O)C4=CC(=O)OC(c5ccoc5)C4(C)CCC3C1(C)C2=O (configuration not stated) ?
inactive

What do we get for O=C(Nc1ccc([N+](=O)[O-])cc1Cl)c1cc(Cl)ccc1O ?
inactive

What do we get for C/C(=C\CO)CC[C@H](C)CCC[C@H](C)CCCC(C)C ?
active

What do we get for CC(=O)NS(=O)(=O)c1ccc(N)cc1 ?
inactive

What do we get for CN(C)CCC[C@@]1(c2ccc(F)cc2)OCc2cc(C#N)ccc21 ?
inactive
